tested on: MS2 coat protein; test: apparent KD of MS2 coat protein; designed switch direction (-1 OFF switch, 1 ON switch): -1; higher = weaker reporter binding; conditions: Eterna round: R95; input ligand: FMN 200 uM
Can you tell me apparent KD of MS2 coat protein for the items I'm about to list?
Answer format: numeric, nM implied, no suffix.

Lab note: need apparent KD of MS2 coat protein for ACAACAAGCUUUUUGUUCGUAGAACAUGAUGCUCUAGUCACAUGAGGAUCACCCAUGUCAGCCAGUUAGAUAGGUGA [JR_SV3TOV2_Sub064] (puzzle: Sensor v3, turn-off variant 2) on MS2 coat protein, anyone have it? 75.2

// same read-out, input: UGGGUACUCCAUAGAAGAGACAUGAGGAUCACCCAUGUAGGGCAAGCUUUUUGCUCGUCUUAGGAUGAGGGAUAGGA [JR_SV3TOV1_Sub014] (puzzle: Sensor v3, turn-off variant 1) 171

Now give it for GGUUGGCGAGGAUAUACAUGAGGAUCACCCAUGUGAGAGUAAAAAGUGAGGAAGAAAAGUAGAAGGCGCUGACG [salish99_ex3_r3_011] (puzzle: Exclusion 3) too. 68.6

Moving on to the next sequence: AGAAAUGCCCAUGGCCGCAAGCCUUUUGCUUGUCUUACCACAUGAGGAUCACCCAUGUGACAUGGGCUCCUUAUAAU [Verileve] (puzzle: Sensor v3, turn-off variant 2) 14
